src = ChEMBL document CHEMBL3808359

ASSAYED SYSTEM: Neuronal acetylcholine receptor subunit alpha-7 (Homo sapiens)
Sequence (P36544 whole entry): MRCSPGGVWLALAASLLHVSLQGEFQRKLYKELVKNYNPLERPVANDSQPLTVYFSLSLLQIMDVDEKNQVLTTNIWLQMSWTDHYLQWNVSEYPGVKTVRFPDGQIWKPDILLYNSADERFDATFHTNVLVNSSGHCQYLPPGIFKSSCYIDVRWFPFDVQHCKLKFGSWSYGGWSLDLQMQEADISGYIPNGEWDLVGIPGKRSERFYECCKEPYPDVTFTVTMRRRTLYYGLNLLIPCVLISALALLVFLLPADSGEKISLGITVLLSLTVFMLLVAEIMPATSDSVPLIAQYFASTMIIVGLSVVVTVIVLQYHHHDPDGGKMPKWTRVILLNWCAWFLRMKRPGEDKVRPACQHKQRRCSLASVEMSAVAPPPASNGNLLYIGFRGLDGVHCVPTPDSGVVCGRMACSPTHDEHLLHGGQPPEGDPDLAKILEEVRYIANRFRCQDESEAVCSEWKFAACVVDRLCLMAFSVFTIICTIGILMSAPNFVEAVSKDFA
METHOD SUMMARY: Agonist activity at alpha7 nAChR (unknown origin)
ATTRIBUTE MEASURED: IC50 (µM)
Please respond with the number in µM and leave the unit unwritten.

Known IC50 results, listed for orientation:
MOLECULE: c1cncc(OC[C@H]2CNCCN2c2nc3ncccc3o2)c1
UNIT SPEC: µM
RESULT NUMBER: 0.006
//
MOLECULE: COc1ccc(NC(=O)N2CCNC[C@@H]2COc2cccnc2)cc1
UNIT SPEC: µM
RESULT NUMBER: 0.019

Lab note: measured IC50 of COc1ccc(NC(=O)N2CCNCC2COc2cccnc2)cc1 (stereo not given) was 0.011
